B1: TPR t1 (parent)
chain: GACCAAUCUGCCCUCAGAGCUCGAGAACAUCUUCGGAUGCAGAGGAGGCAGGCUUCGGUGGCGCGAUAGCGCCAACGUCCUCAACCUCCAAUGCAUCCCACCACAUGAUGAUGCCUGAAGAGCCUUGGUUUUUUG

- Variants of: B1
- ASSAY SUMMARY: polymerase ribozyme fitness, log enrichment relative to wild type (log ratio); higher = more active; in vitro selection for triplet polymerase activity
Record Met whenever polymerase ribozyme fitness (log ratio) is at -3 or higher; record Not met when lower.

# count of solved cases: 3
| SEQ STRING | CLASSIFICATION |
| --- | --- |
| GACCAAUCUGCCCUCAGAGCUCGAGAACAUCUUAGGAUGCAGAGGAGGCAGGCGUCGGUGGCGCGAUAGCGCCAACGUCCUCAACCUCCAAUGUAUCCCACCACAUGAUGAUGCCUGAAGAGCCUUGGUUUUUUG [C34A U54G C94U] | Met |
| GACCAAUCUGCCCUCAGAGCUCGAGAACAUCUUCGGAUGCAGAGGAGGCAGGCUUCGGUGGCGCGAUAGCGCCAACGUCCUCAACUUCCAAUGCAUCCCACCACAUUAUGAUGCCUGAAGAGCCUUGGUUUUUUG [C86U G107U] | Not met |
| GACCAAUCUGCCCUCAGAGCUCGAGGACAUCUUCGGAUGCAGAGGAGACAGGGUUCGGUGGCGCGAUAGCGCCAACGUCCUCAACCUCUACUGCAUCCCACCACAUGAUGAUGCCUGAAGAGCCUUGGUUUUUUG [A26G G48A C53G C89U A91C] | Not met |

Exercise: Kindly determine if polymerase ribozyme fitness (log ratio) recorded for GACCAAUCUGCCCUCAGAGCUCGAGAACAUCUUCGGAUGCAGAGGAGGCAGGCUUCGGUGGCGCGAUAGCGCAAACGUCCUCAACCUCCAAGGCAUCCCACCACAUGAUGAUGCCUGAAGAGCCUUGGUUUUUUG [C73A U92G] is above or exactly -3.
Solution: Met

Exercise: Kindly determine if polymerase ribozyme fitness (log ratio) recorded for GACCAAUCUGCCCUCAGAGCUCGAGAACAUCUUCGGAUGCAGAGGAGGCAGGCUUCGGUGGUGCGAUAGCGCCAACGUCUUCAACCUCCAAUGCAUUCCACCACAUGAUGAUGCCUGAAGAGCCUUGGUUUUUUG [C62U C80U C97U] is above or exactly -3.
Solution: Met

Exercise: Reported polymerase ribozyme fitness (log ratio) reaches at least -3 for GACCAUUCUGCCCUCAGAGCUCGAGAACAUCUUCGGAUGCAGAGGAGGCAGGCUUGGGUGGCGCGAUAGCGCCAACGUCCUCAACCUCCAAUGCAUCCCACCACAUGAUUAUGCCUGAAGAGCCUUGGUUUUUUG [A6U C56G G110U] ?
Solution: Met

Exercise: Entry GACCAAUCUGCUCUCAGAGCUCGAGAACAUCUUCGGAUGCAGAGGAGGCAGGCAUCGGUGGCGCGAUAGCGCCAACGUCCUCAACCUCCAAUGCAUCCCACCACAUGAUGAUGCCUGAAGAGCCUUGGUUUUUUG [C12U U54A] : is its polymerase ribozyme fitness (log ratio) no less than -3?
Solution: Met

Exercise: Does the reported polymerase ribozyme fitness (log ratio) for GACCAAUCUGCCCUCAGAGCUCGAGAACAUCUUCGGAUGCAGAGGAGGCAGGCUUCGGUGGCGCGAUAGCGCCAACGUCCUUAACCUCCAAUGCAGCCCACCACAUGAUGAUGCCUGAAGAGCCUUUGUUUUUUG [C82U U96G G127U] fall at or above the -3 mark?
Solution: Met

Exercise: Is polymerase ribozyme fitness (log ratio) for GACCAAUCUGCCCUCAGAGCUCGAGAACAUCUUCGGAUGCAGAGGAGGCAGGCUUCGGUGGCGCGAUAGCGCCAACGUCCUCAACCUCCAAUGCAUCCCACCACAUUAUGAUACCUGAAGAGCCUUGGUUUUUUG [G107U G113A] at or above -3?
Solution: Not met

Exercise: Hi team, for GACCAAUAUGCCCUCAGAGCUCGAGAACAUCUUCGGAUGCUGAGGAGGCAGGCUUCGGUGGCGCGAUAUCGCCAACGUCCUCAACAUCCAAUGCAUCCCACCACAUGAUGAUGCCUGAAGAGCCUUGGUUUUUUG [C8A A41U G69U C86A] , is the recorded polymerase ribozyme fitness (log ratio) at or above -3?
Solution: Met

Exercise: Test whether the variant GACCAAUCAGCCCUCAGAGCUCGAGAACAUCUUCGGAUGCAGAGGCGGCCGGCUUCGGUGGCGCGAUAGCGCCAACGUCCUGAACCUCCAAUGCAUCCCACCACAUGAUGAUGCCUGAAGAGCCUUGGUUUUUUG [U9A A46C A50C C82G] records polymerase ribozyme fitness (log ratio) of -3 or higher.
Solution: Met

Exercise: Check the entry GACCAAGCUGCCCUCAGAGCUCGAGAGCAUCUUCGGAUGCAGAGGAGCCAGGCUUCGGUGGCGCGAUAGCGCCAACGUCCUCAACGUCCAAUGCAUCCCACCACAUGAUGAUGCCUGAAGAGCCUUGGUUUUUUG [U7G A27G G48C C86G] : does polymerase ribozyme fitness (log ratio) equal or exceed -3?
Solution: Met
